Recorded protein stability index by entry
B1: VPS39 (parent)
chain: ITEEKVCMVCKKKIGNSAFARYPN

- Variants of: B1
- assayExplanation: protein stability index of a GFP-peptide fusion (GPS, HEK-293T) (PSI 1-6); higher = more stable;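 further: lentivirally expressed fusions sorted by FACS into six bins by GFP to DsRed ratio, PSI derived from sequencing read proportions per bin multiplied by bin number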
- conditionNotes: c terminus: a fixed tail appended
# answer = number (no unit)

> print(dat)
   variantdescription  measurement
1                G15L         2.31
2                R21Q         2.75
3                A18F         2.15
4                K13C         2.01

-- ask Field request: protein stability index | item: E3A
-- reply 1.97

-- ask Moving on to the next variant: R21L
-- reply 2.45

-- ask Moving on to the next variant: I14C
-- reply 2.5

-- ask Moving on to the next variant: K12F
-- reply 1.68

-- ask Moving on to the next variant: R21Y
-- reply 3.13

-- ask Moving on to the next variant: S17F
-- reply 2.18

Reference for the values: the supplement of paper PMC10567573
